Test system: VDR homodimer (NR concentration 270 nM)
Procedure summary: PBM binding z-score (relative to random genomic background probes); higher = stronger binding; sequences stand for … in GC…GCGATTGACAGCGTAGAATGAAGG
Reported endpoint: PBM binding z-score
When you answer, write just the number.

Below are worked cases with known answers.
1) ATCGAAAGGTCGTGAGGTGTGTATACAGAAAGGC = 1.16
2) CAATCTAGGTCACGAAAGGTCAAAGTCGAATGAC = 3.66
3) CCGACGGGGGCAGAAAGGTTACCATACCATCCGG = 2.21
4) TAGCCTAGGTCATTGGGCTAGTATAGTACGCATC = 0.989
5) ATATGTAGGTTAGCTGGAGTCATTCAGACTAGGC = -0.00881

Query :: Which PBM binding z-score reading was recorded for the sequence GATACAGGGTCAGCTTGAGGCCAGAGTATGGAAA ?
Result :: 0.666

----------
Tested on: PXR:RXRa (NR concentration 270 nM, RXRa partner concentration 90 nM)
Procedure summary: PBM binding z-score (relative to random genomic background probes); higher = stronger binding; sequences stand for … in GC…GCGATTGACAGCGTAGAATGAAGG
Reported endpoint: PBM binding z-score
When you answer, write just the number.

Below are worked cases with known answers.
1) TCTAGTTGGTCGCGGAGGTCACACACGACGGGTA = 4.16
2) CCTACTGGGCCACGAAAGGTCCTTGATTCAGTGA = -0.149
3) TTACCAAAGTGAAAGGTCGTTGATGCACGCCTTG = 2.3
4) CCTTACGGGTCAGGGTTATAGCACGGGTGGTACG = 2.25
5) CGAACTAGGTCACCAGGACAGGGAAGAGGTTGGA = 1.22

Query :: Which PBM binding z-score reading was recorded for the sequence TGAATGAGGTGAAAGATCAGGGAACGTGGCGTCG ?
Result :: 0.587

Query :: Which PBM binding z-score reading was recorded for the sequence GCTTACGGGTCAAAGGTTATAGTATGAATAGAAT ?
Result :: 6.29

----------
Tested on: RXRa homodimer (NR concentration 180 nM)
Procedure summary: PBM binding z-score (relative to random genomic background probes); higher = stronger binding; sequences stand for … in GC…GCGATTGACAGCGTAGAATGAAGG
Label F if PBM binding z-score falls below 2; label T in every other case.

Reference set (8 entries):
1) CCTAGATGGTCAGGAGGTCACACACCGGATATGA = T
2) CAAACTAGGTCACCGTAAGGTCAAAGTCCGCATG = T
3) CGAACTAGGTCACCAGGATAGTGAAGAGGTTGGA = T
4) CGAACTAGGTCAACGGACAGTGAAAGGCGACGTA = T
5) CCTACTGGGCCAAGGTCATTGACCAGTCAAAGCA = T
6) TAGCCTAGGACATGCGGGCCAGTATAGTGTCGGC = F
7) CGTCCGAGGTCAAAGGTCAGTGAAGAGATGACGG = T
8) CCTGCTAGGTCATGGTCAGGTAATCTACAGTATG = T

Query :: Reported PBM binding z-score at or above 2? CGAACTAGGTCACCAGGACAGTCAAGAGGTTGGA
Result :: T

Query :: Reported PBM binding z-score at or above 2? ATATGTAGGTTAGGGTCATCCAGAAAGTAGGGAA
Result :: T
